protocol.summary: Acute toxicity (LD50) in mice, per os
condition.summary: mouse, in vivo, po
Readings of LD50 for the listed compounds

Solved cases below.
> print(dat)
                                   compound  reported.value
1  CCOC(=O)CCN1CCN(CCOC(c2ccc(C)cc2)c2ccc(F)cc2)CC1 (stereo not drawn)    > 1600 mg/kg
2  CCOC(=O)CCN1CCN(CCOC(c2ccccc2)c2ccc(C)cc2)CC1 (stereo not drawn)    > 1600 mg/kg

Entry CCOC(=O)CCN1CCN(CCOC(c2ccccc2)c2ccc([N+](=O)[O-])cc2)CC1 (stereo not drawn) : reported LD50 = ?
> 1600 mg/kg

Cited source: patent US4096259A
